- tested.on: beta-catenin (Homo sapiens, UniProt P35222)
- Sequence (P35222 whole entry): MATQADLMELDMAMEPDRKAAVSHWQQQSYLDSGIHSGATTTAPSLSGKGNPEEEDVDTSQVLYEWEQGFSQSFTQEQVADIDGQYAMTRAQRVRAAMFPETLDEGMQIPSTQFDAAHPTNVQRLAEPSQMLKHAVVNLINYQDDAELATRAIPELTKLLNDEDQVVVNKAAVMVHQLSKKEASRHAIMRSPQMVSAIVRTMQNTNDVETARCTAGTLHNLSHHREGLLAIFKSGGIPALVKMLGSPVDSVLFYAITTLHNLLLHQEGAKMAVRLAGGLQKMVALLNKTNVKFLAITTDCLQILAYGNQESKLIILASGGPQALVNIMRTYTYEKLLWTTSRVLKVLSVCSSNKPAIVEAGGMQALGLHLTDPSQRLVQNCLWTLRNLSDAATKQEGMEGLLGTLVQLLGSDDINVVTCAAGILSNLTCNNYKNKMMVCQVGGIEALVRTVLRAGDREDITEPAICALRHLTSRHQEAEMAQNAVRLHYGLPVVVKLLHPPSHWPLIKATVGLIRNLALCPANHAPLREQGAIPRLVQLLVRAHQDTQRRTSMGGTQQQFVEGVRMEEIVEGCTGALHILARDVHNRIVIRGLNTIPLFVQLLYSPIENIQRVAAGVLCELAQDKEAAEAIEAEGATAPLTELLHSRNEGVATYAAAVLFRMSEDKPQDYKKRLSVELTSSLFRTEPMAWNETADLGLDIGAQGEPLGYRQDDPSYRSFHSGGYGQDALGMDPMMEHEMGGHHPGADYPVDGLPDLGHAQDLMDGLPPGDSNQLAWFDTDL
- experimental.protocol: fluorescence polarization binding to beta-catenin
- recorded.conditions: read-out: beta-Catenin FP IC50
readout.type: IC50

INPUT: // query IC50 value for entry Ac-PL3-Asp-Npg-B5-Asp-4F3Me2COOHF-Aib-Ala-Phe-Lys*3-PyrS2-2F3MeF-BztA-GlnR*3-Ala-NH2 [I-205]
OUTPUT: < 50 nM
